Square brackets hold non-standard residues; d marks the D form. Peptide text beside a SMILES is read from it. pY = N[C@@H](Cc1ccc(OP(=O)(O)O)cc1)C(=O)O
Dear all, this message contains IC50 results, target or system Tyrosine-protein kinase Lck (Homo sapiens).
Answer with a number only, understood to be in µM.

compound: O=C(/C=C/c1ccc(O)c(O)c1)O[C@H](Cc1ccc(O)c(O)c1)C(=O)O
IC50, µM: 24

Input COC(=O)[C@@H](Cc1ccc(O)c(O)c1)NC(=O)/C=C/c1ccc(O)c(O)c1 . Output IC50: 121

Input COC(=O)[C@@H](Cc1ccc(O)c(O)c1)N(C)C(=O)/C=C/c1ccc(O)c(O)c1 . Output IC50: 149

Input CC[C@H](C)[C@H](NC(=O)[C@H](CCC(=O)O)NC(=O)[C@H](CCC(=O)O)NC(=O)[C@H](Cc1ccc(OP(=O)(O)O)cc1)NC(C)=O)C(=O)N[C@@H](CCC(=O)O)C(=O)O (Ac-[pY]EEIE-OH) . Output IC50: 1.5

Entry source: ChEMBL document CHEMBL1136282
